Would you kindly list Cytotoxicity for each of these compounds?
System: Caco-2
Assay: Cytotoxicity against human Caco-2 cells at 25 uM by MTT assay
Format: cell-based
Conditions: caco-2, 25 µM
Include the unit after the number when you answer.

Item under review: O=[N+]([O-])c1ccc2c(c1)c(OCc1ccccc1)nn2CCN1CCCCC1 . Reported Cytotoxicity?
27%

Query (compound): COc1nn(CCN(C(C)C)C(C)C)c2ccc([N+](=O)[O-])cc12 ; field requested: Cytotoxicity
15%

Cytotoxicity lookup needed for COc1nn(CCN(C)C)c2ccc([N+](=O)[O-])cc12 , thanks.
15%

Name the recorded Cytotoxicity for O=[N+]([O-])c1ccc2c(c1)c(OCc1ccccc1)nn2CCN1CCOCC1 .
0%

Return reported Cytotoxicity; argument: COc1nn(CCN2CCCCC2)c2ccc([N+](=O)[O-])cc12
10%

Consider the compound shown here: COc1nn(CCCN(C)C)c2ccc([N+](=O)[O-])cc12 What is its recorded Cytotoxicity?
29%

Find the recorded Cytotoxicity belonging to O=[N+]([O-])c1ccc2c(c1)c(OCc1ccccc1)nn2CCCCCN1CCCC1 and report it.
25%

Quick check: Cytotoxicity of CN(C)CCn1nc(OCc2ccccc2)c2cc([N+](=O)[O-])ccc21 ?
12%

Quick one: Cytotoxicity of COc1nn(CCCN2CCCCC2)c2ccc([N+](=O)[O-])cc12 ?
0%

Using the record for CCN(CC)CCn1nc(OCc2ccccc2)c2cc([N+](=O)[O-])ccc21 , report its Cytotoxicity.
30%

Tell me the measured Cytotoxicity of O=[N+]([O-])c1ccc2c(c1)c(OCc1ccccc1)nn2CCCCCN1CCc2ccccc2C1 , please.
15%

Look up Cytotoxicity: CCN(CC)CCn1nc(OC)c2cc([N+](=O)[O-])ccc21
0%

Param item = CN(C)CCCCCCn1nc(OCc2ccccc2)c2cc([N+](=O)[O-])ccc21 ; retrieve measured Cytotoxicity.
40%

# Cytotoxicity lookup, item O=[N+]([O-])c1ccc2c(c1)c(OCc1ccccc1)nn2CCCCCCN1CCCCC1
33%

I am curious: what Cytotoxicity value has been reported for COc1nn(CCN2CCOCC2)c2ccc([N+](=O)[O-])cc12 ?
0%

What value of Cytotoxicity has been reported for the following compound? O=[N+]([O-])c1ccc2c(c1)c(OCc1ccccc1)nn2CCCCCN1CCCCCC1
25%

Could you share which Cytotoxicity value was measured for CC(C)N(CCn1nc(OCc2ccccc2)c2cc([N+](=O)[O-])ccc21)C(C)C ?
0%

---

System: Trypanosoma cruzi
Assay: Inhibition of parasitic respiration in Trypanosoma cruzi tulahuen epimastigotes assessed as oxygen uptake at 0.42 mM relative to control
Assay type: functional
measured endpoint: Oxygen uptake at 420 µM (%)
Quick reminder: number only, in %, skip the unit.

Which Oxygen uptake at 420 µM reading was recorded for the molecule CN(C)CCCCCCn1nc(OCc2ccccc2)c2cc([N+](=O)[O-])ccc21 ?
52

Using the record for CN(C)CCn1nc(OCc2ccccc2)c2cc([N+](=O)[O-])ccc21 , report its Oxygen uptake at 420 µM.
51

# get_value(readout='Oxygen uptake at 420 µM', item= O=[N+]([O-])c1ccc2c(c1)c(OCc1ccccc1)nn2CCCCCCBr )
100

# get_value(readout='Oxygen uptake at 420 µM', item= O=[N+]([O-])c1ccc2c(c1)c(OCc1ccccc1)nn2CCCCCBr )
100
